Data origin, for the record: patent US4766133A

# assay_name: acute toxicity (single oral administration to mice)
# study_conditions: mouse, in vivo, read-out: Toxicity, LD 50
measured_parameter: LD50

molecule=CCCCCCSSCc1c(C)c(OC)cc[n+]1-c1nc2ccc(C(F)(F)F)cc2[nH]1.[Cl-] result="> 5000 mg/kg"

Batch of 7 molecules: report LD50 for each.
1. CCSSCc1c(C)c(OC)cc[n+]1-c1nc2ccc(C(F)(F)F)cc2[nH]1.[Cl-]
2. COc1cc[n+](-c2nc3cc4c(cc3[nH]2)C(C)(C)C(=O)C4(C)C)c(CSSC2CCCC2)c1C.[Cl-]
3. CCCSSCc1c(C)c(OC)cc[n+]1-c1nc2cc3c(cc2[nH]1)C(C)(C)C(=O)C3(C)C.[Cl-]
4. COc1cc[n+](-c2nc3cc4c(cc3[nH]2)C(C)(C)C(=O)C4(C)C)c(CSSCCC(N)C(=O)O)c1C.[Cl-] (racemic)
5. COc1cc[n+](-c2nc3cc4c(cc3[nH]2)C(C)(C)C(=O)C4(C)C)c(CSSCCO)c1C.[Cl-]
6. COc1cc[n+](-c2nc3ccc(C(F)(F)F)cc3[nH]2)c(CSSC[C@H](N)C(=O)O)c1C.[Cl-]
7. CCOC(=O)[C@@H](N)CSSCc1c(C)c(OC)cc[n+]1-c1nc2cc3c(cc2[nH]1)C(C)(C)C(=O)C3(C)C.[Cl-]

Found:
1250 to 2500 mg/kg
312 to 625 mg/kg
312 to 625 mg/kg
312 to 625 mg/kg
312 to 625 mg/kg
1250 to 2500 mg/kg
312 to 625 mg/kg

Hi team, please reply with LD50 for each item in this list.
1. COc1cc[n+](-c2nc3ccc(C(F)(F)F)cc3[nH]2)c(CSSc2ccccc2Cl)c1C.[Cl-]
2. COc1cc[n+](-c2nc3cc(C(F)(F)F)ccc3[nH]2)c(CSSCCN)c1C
3. COc1cc[n+](-c2nc3cc(C(F)(F)F)ccc3[nH]2)c(CSSC[C@H](NC(=O)CC[C@H](N)C(=O)O)C(=O)NCC(=O)O)c1C
4. CCCSSCc1c(C)c(OC)cc[n+]1-c1nc2ccc(C(F)(F)F)cc2[nH]1.[Cl-]
5. COc1cc[n+](-c2nc3cc4c(cc3[nH]2)C(C)(C)C(=O)C4(C)C)c(CSSC[C@H](N)C(=O)O)c1C.[Cl-]
6. CCOC(=O)CC(SSCc1c(C)c(OC)cc[n+]1-c1nc2ccc(C(F)(F)F)cc2[nH]1)C(=O)OCC.[Cl-] (stereo not shown)

Found:
> 5000 mg/kg
312 to 625 mg/kg
1250 to 2500 mg/kg
> 5000 mg/kg
312 to 625 mg/kg
1250 to 2500 mg/kg

State the recorded LD50 for every item in the following list.
1. CCSSCc1c(C)c(OC)cc[n+]1-c1nc2cc3c(cc2[nH]1)C(C)(C)C(=O)C3(C)C.[Cl-]
2. COc1cc[n+](-c2nc3cc4c(cc3[nH]2)C(C)(C)C(=O)C4(C)C)c(CSSc2cccc(Cl)c2)c1C

Found:
1. 312 to 625 mg/kg
2. 1250 to 2500 mg/kg
